Kindly state loss of binding vs wild type for each of the entries shown.
Molecular target: T1, hiR1-FL-WT-T7 (human, UniProt Q96CC6 1-855)
T1 construct: on MEF-DKO cells
T1 sequence: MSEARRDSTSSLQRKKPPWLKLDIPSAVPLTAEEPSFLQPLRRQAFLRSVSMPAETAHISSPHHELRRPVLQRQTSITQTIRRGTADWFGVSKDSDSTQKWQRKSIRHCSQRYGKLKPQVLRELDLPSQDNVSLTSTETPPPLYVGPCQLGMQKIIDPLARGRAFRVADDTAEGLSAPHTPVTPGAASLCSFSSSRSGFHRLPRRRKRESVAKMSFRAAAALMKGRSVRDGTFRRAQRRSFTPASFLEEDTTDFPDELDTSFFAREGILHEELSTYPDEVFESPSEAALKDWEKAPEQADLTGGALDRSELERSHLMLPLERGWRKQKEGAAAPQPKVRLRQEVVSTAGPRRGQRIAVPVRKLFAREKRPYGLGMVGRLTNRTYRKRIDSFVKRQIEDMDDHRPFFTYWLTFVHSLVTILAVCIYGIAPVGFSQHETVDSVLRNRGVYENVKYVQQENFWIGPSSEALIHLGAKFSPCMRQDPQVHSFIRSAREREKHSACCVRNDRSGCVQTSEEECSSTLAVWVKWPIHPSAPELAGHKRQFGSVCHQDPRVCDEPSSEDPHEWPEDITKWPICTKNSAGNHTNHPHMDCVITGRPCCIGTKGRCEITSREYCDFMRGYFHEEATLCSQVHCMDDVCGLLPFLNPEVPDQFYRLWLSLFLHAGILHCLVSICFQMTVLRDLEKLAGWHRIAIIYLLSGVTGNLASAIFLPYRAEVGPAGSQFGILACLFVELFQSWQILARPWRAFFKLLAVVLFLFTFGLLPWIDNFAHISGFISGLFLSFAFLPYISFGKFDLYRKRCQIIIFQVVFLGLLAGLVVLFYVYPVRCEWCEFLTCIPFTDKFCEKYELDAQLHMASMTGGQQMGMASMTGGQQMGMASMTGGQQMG
Test: FACS, MEF-DKO cells, 3 µg/ml

binder="antibody 3 (antibody, V domains shown, mouse IgG, kappa light chain; also called clone #3; purified antibody 3) VH: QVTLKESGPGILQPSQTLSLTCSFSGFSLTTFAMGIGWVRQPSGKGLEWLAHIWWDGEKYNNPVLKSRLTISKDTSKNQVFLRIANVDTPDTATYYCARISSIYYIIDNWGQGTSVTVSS VL: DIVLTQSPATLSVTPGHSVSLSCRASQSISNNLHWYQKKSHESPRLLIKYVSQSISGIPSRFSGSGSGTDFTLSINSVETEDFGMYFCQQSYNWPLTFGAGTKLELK" value_reported="≥ 95%"
binder="antibody 42 (antibody, V domains shown, mouse IgG, kappa light chain; also called clone #42; purified antibody 42) VH: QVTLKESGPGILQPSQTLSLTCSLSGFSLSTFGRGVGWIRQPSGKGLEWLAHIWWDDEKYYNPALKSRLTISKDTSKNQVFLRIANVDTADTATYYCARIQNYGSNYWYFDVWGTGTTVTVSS VL: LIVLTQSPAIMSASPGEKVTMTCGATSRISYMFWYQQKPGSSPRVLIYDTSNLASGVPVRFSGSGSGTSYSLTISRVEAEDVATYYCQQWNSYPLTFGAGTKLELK" value_reported="≥ 95%"

Query: Name the recorded loss of binding vs wild type of the binder listed here: antibody 34 (antibody, V domains shown, mouse IgG, kappa light chain; also called clone #34; purified antibody 34) VH: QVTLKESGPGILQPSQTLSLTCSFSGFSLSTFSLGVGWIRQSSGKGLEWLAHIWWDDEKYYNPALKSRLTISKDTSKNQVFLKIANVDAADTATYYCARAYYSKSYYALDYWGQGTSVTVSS VL: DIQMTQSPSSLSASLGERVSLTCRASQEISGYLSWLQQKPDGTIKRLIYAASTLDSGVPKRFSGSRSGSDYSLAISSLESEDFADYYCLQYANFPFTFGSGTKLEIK
Response: ≥ 95%
